Biological target: HLA-A*0201 (human)
Test: inhibition of 125I-labelled probe peptide binding to purified HLA; gel filtration
Conditions: remark: other sources report otherwise
QUANTITY: pIC50
Value format note: pIC50 is -log10 of concentration (mol/L); just state the number.

stdin: Annotate the binder PLLLWQPIPV (modifications not checked) [peptide 63.0042 (PAP.134.L2)] with its measured pIC50.
stdout: 6.62

stdin: Annotate the binder KLRELSELSV (modifications not checked) [peptide 63.0048 (PAP.234.V10)] with its measured pIC50.
stdout: 6.58

stdin: Annotate the binder GVSIWNPILV (modifications not checked) [peptide 63.0041 (PAP.128.V10)] with its measured pIC50.
stdout: 6.60

stdin: Annotate the binder ALDVYNGLL (modifications not checked) [peptide 1177.02 (PAP.299)] with its measured pIC50.
stdout: 7.14

stdin: Annotate the binder GVSIWNPIV (modifications not checked) [peptide 60.0207 (PAP.128.V9)] with its measured pIC50.
stdout: 6.34

stdin: Annotate the binder ALFPPEGVSI (modifications not checked) [peptide 1419.6 (PAP.122)] with its measured pIC50.
stdout: 6.56
